Target: human TAS2R14 (Homo sapiens)
Construct: expressed in transfected cells; host or cells: HEK293T-Gα16gust44
Sequence (Q9NYV8 whole entry): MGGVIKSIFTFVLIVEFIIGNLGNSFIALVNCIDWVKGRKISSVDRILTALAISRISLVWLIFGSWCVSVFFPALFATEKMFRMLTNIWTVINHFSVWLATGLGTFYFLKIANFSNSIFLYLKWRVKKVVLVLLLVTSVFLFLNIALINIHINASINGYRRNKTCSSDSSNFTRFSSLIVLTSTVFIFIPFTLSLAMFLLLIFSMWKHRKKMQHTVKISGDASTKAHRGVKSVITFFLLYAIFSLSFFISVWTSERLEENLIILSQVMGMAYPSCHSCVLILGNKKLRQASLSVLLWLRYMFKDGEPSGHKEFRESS
Experiment: Calcium imaging assay (FLIPR), HEK293T-Gα16gust44 cells transfected with human TAS2R14
Format: cell-based
Conditions: TAS2R14 trace; Time (s) 76.797 (Chenodeoxycholic Acid 76.781)
Simple rule here: RLU less than 700 RLU is Yes, otherwise No.

Inquiry: Threshold test, RLU < 700 RLU: `C[C@H](CCC(=O)O)[C@H]1CC[C@H]2[C@@H]3[C@H](O)C[C@@H]4C[C@H](O)CC[C@]4(C)[C@H]3C[C@H](O)[C@]12C`
Reply text: No

Inquiry: Could you please tell me whether RLU recorded for `C[C@H](CCC(=O)NCCS(=O)(=O)O)[C@H]1CC[C@H]2[C@@H]3CC[C@@H]4C[C@H](O)CC[C@]4(C)[C@H]3CC[C@]12C` is less than 700 RLU?
Reply text: Yes

Inquiry: Consider the compound `C[C@H](CCC(=O)O)[C@H]1CC[C@H]2[C@@H]3[C@H](O)C[C@@H]4C[C@H](O)CC[C@]4(C)[C@H]3CC[C@]12C` . Is its RLU strictly less than 700 RLU?
Reply text: Yes

---

Target: human TAS2R1 (Homo sapiens)
Construct: expressed in transfected cells; host or cells: HEK293T-Gα16gust44
Sequence (Q9NYW7 whole entry): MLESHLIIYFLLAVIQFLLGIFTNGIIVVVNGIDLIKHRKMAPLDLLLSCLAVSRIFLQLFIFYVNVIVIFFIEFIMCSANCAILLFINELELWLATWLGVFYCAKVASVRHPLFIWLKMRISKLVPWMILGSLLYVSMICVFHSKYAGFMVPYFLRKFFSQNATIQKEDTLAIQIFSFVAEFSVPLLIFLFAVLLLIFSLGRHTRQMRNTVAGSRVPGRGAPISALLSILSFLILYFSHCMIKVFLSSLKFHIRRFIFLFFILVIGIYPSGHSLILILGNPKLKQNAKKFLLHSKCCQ
Assay: Calcium imaging assay (FLIPR), HEK293T-Gα16gust44 cells transfected with human TAS2R1
Type: cell-based
Details: Time 32.796 s
endpoint: RLU (RLU)
Express the result in RLU but write the number alone.

Simply: `C[C@H](CCC(=O)O)[C@H]1CC[C@H]2[C@@H]3[C@@H](O)C[C@@H]4C[C@H](O)CC[C@]4(C)[C@H]3CC[C@]12C` , human TAS2R1 (Homo sapiens), RLU = 554.696

`C[C@H](CCC(=O)O)[C@H]1CC[C@H]2[C@@H]3[C@H](O)C[C@@H]4C[C@H](O)CC[C@]4(C)[C@H]3CC[C@]12C` on human TAS2R1 (Homo sapiens) gives RLU = 667.246

RLU on human TAS2R1 (Homo sapiens) for `C[C@H](CCC(=O)O)[C@H]1CC[C@H]2[C@@H]3CC[C@@H]4C[C@H](O)CC[C@]4(C)[C@H]3CC[C@]12C` is 449.564

Entry `C[C@H](CCC(=O)O)[C@H]1CC[C@H]2[C@@H]3[C@H](O)C[C@@H]4C[C@H](O)CC[C@]4(C)[C@H]3C[C@H](O)[C@]12C` under human TAS2R1 (Homo sapiens) had RLU of 487.46

---

I'd appreciate it if you could supply RLU values for the items below.
Target: mouse Tas2r144 (Mus musculus)
Construct: expressed in transfected cells; host or cells: HEK293T-Gα16gust44
Sequence (Q7TQB8 whole entry): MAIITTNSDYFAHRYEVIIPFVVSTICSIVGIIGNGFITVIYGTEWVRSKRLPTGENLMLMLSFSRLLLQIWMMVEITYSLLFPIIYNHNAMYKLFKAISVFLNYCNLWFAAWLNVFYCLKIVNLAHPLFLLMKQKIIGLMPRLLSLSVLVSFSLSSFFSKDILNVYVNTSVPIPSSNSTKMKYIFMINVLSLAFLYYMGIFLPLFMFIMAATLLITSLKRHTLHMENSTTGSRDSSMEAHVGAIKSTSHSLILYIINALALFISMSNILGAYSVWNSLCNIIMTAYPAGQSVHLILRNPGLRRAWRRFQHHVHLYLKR
Experiment: Calcium imaging assay (FLIPR), HEK293T-Gα16gust44 cells transfected with mouse Tas2r144
Assay type: cell-based
Conditions: Time 20.781 s

Reported RLU (mouse Tas2r144 (Mus musculus)) for entry C[C@H](CCC(=O)NCC(=O)O)[C@H]1CC[C@H]2[C@@H]3[C@H](O)C[C@@H]4C[C@H](O)CC[C@]4(C)[C@H]3C[C@H](O)[C@]12C [Glycocholic Acid, glycocholic acid] is -28.6004 RLU

The observed RLU for C[C@H](CCC(=O)NCCS(=O)(=O)O)[C@H]1CC[C@H]2[C@@H]3[C@H](O)C[C@@H]4C[C@H](O)CC[C@]4(C)[C@H]3C[C@H](O)[C@]12C [Taurocholic Acid, taurocholic acid] when tested with mouse Tas2r144 (Mus musculus) stands at -26.0614 RLU

Here C[C@H](CCC(=O)O)[C@H]1CC[C@H]2[C@@H]3[C@H](O)C[C@@H]4C[C@H](O)CC[C@]4(C)[C@H]3C[C@H](O)[C@]12C [Cholic Acid, cholic acid] was tested on mouse Tas2r144 (Mus musculus), and its RLU came to 112.965 RLU

Observed RLU on mouse Tas2r144 (Mus musculus), entry C[C@H](CCC(=O)NCCS(=O)(=O)O)[C@H]1CC[C@H]2[C@@H]3CC[C@@H]4C[C@H](O)CC[C@]4(C)[C@H]3CC[C@]12C [Taurolithocholic Acid, taurolithocholic acid] , equals -19.5171 RLU
